Would you kindly list Activity for each of these compounds?
System: Mus musculus
experimentalDetails: Toxicity in mouse EAC cells transplanted Swiss albino mouse assessed as change in hematocrit content at 25 mg/kg. ip dissolved in DMSO for 14 days measured after final dose by 18 hrs fasting
Type: organism-based, Ehrlich
Parameters: dose 25 mg/kg, route intraperitoneal
experimentalParameters: in vivo
Quick reminder: number only, in %, skip the unit.

Activity reported for this compound `CC(=O)O[C@H]1CC[C@H]2[C@@H]3CC[C@H]4C/C(=N/n5c(-c6ccccc6)csc5=S)CC[C@]4(C)[C@H]3CC[C@]12C` : 42.7

Activity reported for this compound CC(=O)O[C@H]1CC[C@H]2[C@@H]3CC[C@H]4CC5=C(C[C@]4(C)[C@H]3CC[C@]12C)C(c1ccccc1)OC(N)=C5C#N (stereo not given in full) : 36.6

Activity reported for this compound `CC(=O)O[C@H]1CC[C@H]2[C@@H]3CC[C@H]4CNC(=O)CC[C@]4(C)[C@H]3CC[C@]12C` : 38.56

Activity reported for this compound COc1ccc(C2Oc3nc(N)c(C#N)c(N)c3C3=C2C[C@@]2(C)[C@@H](CC[C@@H]4[C@@H]2CC[C@]2(C)[C@@H](OC(C)=O)CC[C@@H]42)C3)cc1 (stereo not given in full) : 38.3

Activity reported for this compound `CC(=O)O[C@H]1CC[C@H]2[C@@H]3CC[C@H]4Cc5c(C#N)c(N)n(-c6ccccc6)c(=S)c5C[C@]4(C)[C@H]3CC[C@]12C` : 33.8

###

System: Mus musculus
experimentalDetails: Toxicity in mouse EAC cells transplanted Swiss albino mouse assessed as change in total WBC content at 25 mg/kg. ip dissolved in DMSO for 14 days measured after final dose by 18 hrs fasting
Assay type: organism-based, Ehrlich
Set-up: dose 25 mg/kg, route intraperitoneal
experimentalParameters: in vivo
measureName: Activity

Activity reported for this compound COc1ccc(C2Oc3nc(N)c(C#N)c(N)c3C3=C2C[C@@]2(C)[C@@H](CC[C@@H]4[C@@H]2CC[C@]2(C)[C@@H](OC(C)=O)CC[C@@H]42)C3)cc1 (stereo not given in full) : 7.35 /10'3mm'-3

Activity reported for this compound `CC(=O)O[C@H]1CC[C@H]2[C@@H]3CC[C@H]4CNC(=O)CC[C@]4(C)[C@H]3CC[C@]12C` : 6.46 /10'3mm'-3

Activity reported for this compound CC(=O)O[C@H]1CC[C@H]2[C@@H]3CC[C@H]4CC5=C(C[C@]4(C)[C@H]3CC[C@]12C)C(c1ccccc1)OC(N)=C5C#N (stereo not given in full) : 5.9 /10'3mm'-3

Activity reported for this compound `CC(=O)O[C@H]1CC[C@H]2[C@@H]3CC[C@H]4C/C(=N/n5c(-c6ccccc6)csc5=S)CC[C@]4(C)[C@H]3CC[C@]12C` : 5.66 /10'3mm'-3

Activity reported for this compound `CC(=O)O[C@H]1CC[C@H]2[C@@H]3CC[C@H]4Cc5c(C#N)c(N)n(-c6ccccc6)c(=S)c5C[C@]4(C)[C@H]3CC[C@]12C` : 5.75 /10'3mm'-3

###

Tested on: HepG2
experimentalDetails: Antitumor activity against human HepG2 cells incubated with drug dissolved in olive oil after 48 hrs by MTT assay
Type: functional, cell-based
experimentalParameters: HepG2, 48 h
measureName: pIC50
When answering, recall that pIC50 equals minus log10 of the concentration in mol/L, and write that number alone.

pIC50 reported for this compound `CC(=O)O[C@H]1CC[C@H]2[C@@H]3CC[C@H]4Cc5c(C#N)c(N)n(-c6ccccc6)c(=S)c5C[C@]4(C)[C@H]3CC[C@]12C` : 4.32

pIC50 reported for this compound `CC(=O)O[C@H]1CC[C@H]2[C@@H]3CC[C@H]4CNC(=O)CC[C@]4(C)[C@H]3CC[C@]12C` : 4.33

pIC50 reported for this compound `CC(=O)O[C@H]1CC[C@H]2[C@@H]3CC[C@H]4C/C(=N/n5c(-c6ccccc6)csc5=S)CC[C@]4(C)[C@H]3CC[C@]12C` : 4.33

pIC50 reported for this compound COc1ccc(C2Oc3nc(N)c(C#N)c(N)c3C3=C2C[C@@]2(C)[C@@H](CC[C@@H]4[C@@H]2CC[C@]2(C)[C@@H](OC(C)=O)CC[C@@H]42)C3)cc1 (stereo not given in full) : 4.32

pIC50 reported for this compound CC(=O)O[C@H]1CC[C@H]2[C@@H]3CC[C@H]4CC5=C(C[C@]4(C)[C@H]3CC[C@]12C)C(c1ccccc1)OC(N)=C5C#N (stereo not given in full) : 4.34
